- target_system: human 5-HT2C receptor (Homo sapiens, UniProt P28335)
- assay_text: calcium mobilization (FLIPR) in CHO cells stably expressing the human 5-HT2C receptor
- Assay type: cell-based
- measurement_setup: CHO, read-out: 5-HT2C Function EMax (%)
Where a name gives a salt, the structure may show the parent alone.
Readings of Emax for the listed compounds
Write the number in % without appending the unit.

Worked examples, 5 compounds total:
• NC[C@@H]1CCc2cc(F)cc(-c3ccccc3Cl)c2O1 [Compound 51, hydrochloride] = 80
• CNC[C@H]1C=Cc2cccc(-c3c(Cl)cccc3Cl)c2O1 [Compound 59, hydrochloride] = 90
• NC[C@@H]1CCc2cc(F)cc(-c3cc(Cl)ccc3Cl)c2O1 [Compound 55, hydrochloride] = 70
• CNC[C@@H]1CCc2cccc(-c3ccc(Cl)cc3Cl)c2O1 [Compound 21, hydrochloride] = 80
• CNC[C@H]1CCc2cccc(-c3ccccc3)c2O1 [Compound 5, hydrochloride] = 90

Looking for the measured Emax of CNC[C@H]1CCc2cc(F)cc(-c3cccnc3)c2O1 [Compound 44, hydrochloride] , can you help?
80

Given the entry CNC[C@@H]1CCc2cccc(-c3ccc(OC)cc3OC)c2O1 [Compound 24, hydrochloride] , report its measured Emax.
100

GET /values?readout=Emax&item= COc1ccccc1-c1cccc2c1O[C@@H](CN)CC2 [Compound 15, hydrochloride]
90

State the recorded Emax for this entry: CCNC[C@H]1CCc2cc(F)cc(-c3c(Cl)cccc3Cl)c2O1 [Compound 58, hydrochloride]
60

Please look up its Emax: NC[C@H]1C=Cc2cc(F)cc(-c3c(Cl)cccc3Cl)c2O1 [Compound 66, hydrochloride]
90

Please look up its Emax: NC[C@H]1CCc2cc(F)cc(-c3ccccc3Cl)c2O1 [Compound 45, hydrochloride]
90

Endpoint output: Emax of COc1ccc(-c2cccc3c2O[C@H](CN)CC3)c(OC)c1 [Compound 32, hydrochloride] . Value?
90

// query Emax value for entry NC[C@H]1CCc2cc(F)cc(-c3c(Cl)cccc3Cl)c2O1 [Compound 57, hydrochloride]
80

Please look up its Emax: CNC[C@H]1CCc2cc(F)cc(-c3cc(Cl)ccc3Cl)c2O1 [Compound 40, hydrochloride]
90

// returns reported Emax for input CNC[C@H]1CCc2cc(F)cc(-c3ccc(Cl)cc3Cl)c2O1 [Compound 41, hydrochloride]
90

Quick check: Emax of NC[C@H]1CCCc2cccc(-c3c(Cl)cccc3Cl)c2O1 [Compound 67, hydrochloride] ?
80

Requested field: Emax. Item: CNC[C@H]1CCc2cccc(-c3ccc(OC)cc3OC)c2O1 [Compound 7, hydrochloride]
90

Sample NC[C@H]1CCc2cccc(-c3ccccc3Cl)c2O1 [Compound 11, hydrochloride] — what was its Emax?
100

Returns the measured Emax for the input compound. Input: Cc1ccccc1-c1cc(F)cc2c1O[C@H](CN)CC2 [Compound 53, hydrochloride]
70

Entry under review: CNC[C@H]1CCc2cc(F)cc(-c3ccccc3C)c2O1 [Compound 43, hydrochloride] . Reported Emax?
90

---

Parameter: EC50. Scope: all listed entries.
- target_system: human 5-HT2C receptor (Homo sapiens)
- assay_text: calcium mobilization (FLIPR) in CHO cells stably expressing the human 5-HT2C receptor
- measurement_setup: calcium mobilization; read-out: 5-HT2C Function EC50
Structures can show the parent of a compound that is named as a salt.

Would you please look over these solved cases?
- CNC[C@H]1CCc2cccc(-c3cccnc3)c2O1 [Compound 9, hydrochloride]: < 50 nM
- COc1ccc(-c2cccc3c2O[C@@H](CN)CC3)c(OC)c1 [Compound 16, hydrochloride]: < 50 nM
- CNC[C@@H]1CCc2cccc(-c3ccccc3C)c2O1 [Compound 25, hydrochloride]: > 200 nM
- NC[C@@H]1CCc2cc(F)cc(-c3ccc(Cl)cc3Cl)c2O1 [Compound 56, hydrochloride]: 50 to 200 nM
- CNC[C@H]1CCc2cccc(-c3ccccc3OC)c2O1 [Compound 6, hydrochloride]: < 50 nM

# input compound: NC[C@H]1CCc2cc(F)cc(-c3ccccc3Cl)c2O1 [Compound 45, hydrochloride] ; wanted: its EC50
< 50 nM

---

- target_system: human 5-HT2C receptor (Homo sapiens, UniProt P28335)
- Sequence (P28335 33-458): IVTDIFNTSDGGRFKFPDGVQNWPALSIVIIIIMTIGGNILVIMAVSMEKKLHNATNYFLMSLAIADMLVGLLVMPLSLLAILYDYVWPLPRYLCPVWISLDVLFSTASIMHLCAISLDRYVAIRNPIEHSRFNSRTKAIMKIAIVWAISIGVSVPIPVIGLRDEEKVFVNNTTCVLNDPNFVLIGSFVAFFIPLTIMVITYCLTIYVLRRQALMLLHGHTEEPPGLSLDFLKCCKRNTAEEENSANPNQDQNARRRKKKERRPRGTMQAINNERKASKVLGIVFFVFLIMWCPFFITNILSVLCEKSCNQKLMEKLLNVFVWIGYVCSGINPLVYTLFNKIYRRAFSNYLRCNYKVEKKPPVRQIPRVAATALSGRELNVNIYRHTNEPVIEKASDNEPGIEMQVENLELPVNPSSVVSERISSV
- assay_text: calcium mobilization (FLIPR) in CHO cells stably expressing the human 5-HT2C receptor
- Assay type: cell-based
- measurement_setup: calcium mobilization; read-out: 5-HT2C Function EC50
pEC50: −log10 of the molar value. Where a name gives a salt, the structure may show the parent alone.
measurement_name: pEC50

- NCC1CCc2cc(F)cc(-c3ccccc3Cl)c2O1 (centres unmarked) [Compound 37, hydrochloride]: > 7.30
- NC[C@H]1CCc2cccc(-c3cccnc3)c2O1 [Compound 18, hydrochloride]: > 7.30
- NC[C@@H]1CCc2cc(F)cc(-c3cc(Cl)ccc3Cl)c2O1 [Compound 55, hydrochloride]: 6.70 to 7.30

Recorded pEC50 for NC[C@H]1CCc2cc(F)cc(-c3ccccc3)c2O1 [Compound 48, hydrochloride] , please?
6.70 to 7.30

Data request, read-out pEC50, for CNC[C@H]1CCc2cccc(-c3ccc(Cl)cc3Cl)c2O1 [Compound 4, hydrochloride]
> 7.30

---

- target_system: human 5-hydroxytryptamine-2C (h5-HT2C) receptor (Homo sapiens)
- Construct: expressed in transfected cells; host or cells: CHO (Chinese Hamster Ovary) cells; membrane preparation
- assay_text: [125I]DOI binding to membranes of CHO cells expressing h5-HT2C receptor
- measurement_setup: read-out: 5-HT2C Binding Ki avg
Structures can show the parent of a compound that is named as a salt.
measurement_name: Ki

Past entries and their recorded results:
* NCC1CCc2cccc(-c3ccccc3Cl)c2O1 (stereo not drawn) [Compound 2, trifluoroacetate] | ≤ 10 nM
* CNC[C@H]1CCc2cccc(-c3ccc(Cl)cc3Cl)c2O1 [Compound 4, hydrochloride] | > 50 nM
* NC[C@@H]1CCc2cccc(-c3cccnc3)c2O1 [Compound 34, hydrochloride] | > 50 nM

Query: Ki; subject: NC[C@H]1CCc2cccc(-c3cc(Cl)ccc3Cl)c2O1 [Compound 12, hydrochloride]
10 to 50 nM

Looking for the measured Ki of CNC[C@H]1CCc2cc(F)cc(-c3ccccc3C)c2O1 [Compound 43, hydrochloride] , can you help?
≤ 10 nM

# Ki lookup, item NC[C@H]1C=Cc2cc(F)cc(-c3ccccc3Cl)c2O1 [Compound 64, hydrochloride]
≤ 10 nM

Returns the measured Ki for the input compound. Input: Cc1ccccc1-c1cc(F)cc2c1O[C@H](CN)CC2 [Compound 53, hydrochloride]
10 to 50 nM

Dear colleague, I am looking for the recorded Ki of the following compound: NC[C@@H]1CCc2cc(F)cc(-c3cccnc3)c2O1 [Compound 54, hydrochloride]
> 50 nM

Consider the compound shown here: COc1ccc(-c2cccc3c2O[C@@H](CN)CC3)c(OC)c1 [Compound 16, hydrochloride] What is its recorded Ki?
≤ 10 nM

Name the recorded Ki for COc1ccccc1-c1cc(F)cc2c1O[C@@H](CN)CC2 [Compound 38, hydrochloride] .
≤ 10 nM

Fill in: Ki of NC[C@@H]1CCc2cccc(-c3ccccc3)c2O1 [Compound 30, hydrochloride] is ___
> 50 nM

---

Readings of EC50 for the listed compounds
- target_system: human 5-HT2C receptor (Homo sapiens)
- Sequence (P28335 33-458): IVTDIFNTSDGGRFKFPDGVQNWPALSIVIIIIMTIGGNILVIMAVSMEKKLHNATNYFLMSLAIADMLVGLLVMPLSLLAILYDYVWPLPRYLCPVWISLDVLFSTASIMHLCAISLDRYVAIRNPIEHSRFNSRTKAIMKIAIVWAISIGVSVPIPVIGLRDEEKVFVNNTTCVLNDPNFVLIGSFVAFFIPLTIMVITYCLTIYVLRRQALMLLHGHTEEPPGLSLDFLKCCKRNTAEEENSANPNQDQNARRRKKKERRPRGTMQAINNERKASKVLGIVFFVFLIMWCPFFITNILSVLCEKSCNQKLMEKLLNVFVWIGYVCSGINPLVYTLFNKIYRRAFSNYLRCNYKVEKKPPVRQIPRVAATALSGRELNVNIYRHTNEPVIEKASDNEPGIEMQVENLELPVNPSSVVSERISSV
- assay_text: calcium mobilization (FLIPR) in CHO cells stably expressing the human 5-HT2C receptor
- measurement_setup: calcium mobilization; read-out: 5-HT2C Function EC50
Where a name gives a salt, the structure may show the parent alone.

- CNC[C@H]1CCc2cccc(-c3ccc(OC)cc3OC)c2O1 [Compound 7, hydrochloride]: < 50 nM

Record CNC[C@H]1CCc2cccc(-c3ccccc3Cl)c2O1 [Compound 10, hydrochloride] : what is its EC50 with human 5-HT2C receptor (Homo sapiens)?
< 50 nM

Request body: readout EC50, system human 5-HT2C receptor (Homo sapiens), query NC[C@H]1CCc2cccc(-c3cc(Cl)ccc3Cl)c2O1 [Compound 12, hydrochloride] . Return the value.
50 to 200 nM

I'm curious: which EC50 was measured for CNC[C@H]1CCc2cc(F)cc(-c3ccccc3)c2O1 [Compound 42, hydrochloride] tested on human 5-HT2C receptor (Homo sapiens)?
50 to 200 nM

Notebook entry, human 5-HT2C receptor (Homo sapiens) assay: EC50 of CNC[C@@H]1CCc2cccc(-c3ccc(Cl)cc3Cl)c2O1 [Compound 21, hydrochloride] = ?
50 to 200 nM

Find the measured EC50: item Cc1ccccc1-c1cc(F)cc2c1O[C@@H](CN)CC2 [Compound 49, hydrochloride] , target or system human 5-HT2C receptor (Homo sapiens).
< 50 nM

API: value(readout=EC50, system=human 5-HT2C receptor (Homo sapiens)) for record CCNC[C@H]1CCc2cc(F)cc(-c3c(Cl)cccc3Cl)c2O1 [Compound 58, hydrochloride]
< 50 nM

Item: NCC1CCc2cccc(-c3ccccc3Cl)c2O1 (stereo not drawn) [Compound 2, trifluoroacetate] Test system: human 5-HT2C receptor (Homo sapiens) Read-out: EC50 Value: ?
< 50 nM

Test system human 5-HT2C receptor (Homo sapiens); read-out EC50; what value for COc1ccc(-c2cccc3c2O[C@H](CN)CC3)c(OC)c1 [Compound 32, hydrochloride] ?
50 to 200 nM
